- measurementDescription: Metabolic stability in mouse liver microsomes (in vitro t1/2)
- Type: in vitro ADME
- conditionsUsed: mouse liver microsomes, 60 min
- Protocol: The following are assays that may be used to evaluate the metabolic stability of compounds of Formula (I) in human, rat, or mouse microsomes. The assays follow a common procedure recited below. 1. […] Peak areas were determined from extracted ion chromatograms. The slope value, k, was determined by linear regression of the natural logarithm of the remaining percentage of the parent drug vs. incubation time curve. […]
measureName: Mouse microsome % 60 min (%)

Completed entries (count: 5):
Q) Reported Mouse microsome % 60 min for `COc1cccc(-c2cc(COC(C)(C)C(=O)O)nn2Cc2ccccc2OC(C)C)c1` : what is it?
A) 62

Q) Can you handle `Cc1ccccc1-n1nc(COC(C)(C)C(=O)O)cc1-c1cccc(OC2CCC2)c1` next?
A) 99

Q) Can you handle `CC[C@@](C)(OCc1cc(-c2cc(OC)cc(OC)c2)n(-c2ccccc2Cl)n1)C(=O)O` next?
A) 94

Q) Can you handle `COc1cc(OC)cc(-c2cc(COC(C)(C)C(=O)O)nn2Cc2ccccc2Cl)c1` next?
A) 98

Q) Can you handle `CC(C)(OCc1cc(-c2cccc(OC3CC3)c2)n(Cc2ccccc2N2CCCC2)n1)C(=O)O` next?
A) 32

(a) CC(C)(OCc1cc(-c2cccc(OC3CC3)c2)n(Cc2ccccc2Cl)n1)C(=O)O
(b) CC(C)(OCc1cc(-c2cccc(OC3CC3)c2)n(-c2ccccc2N2CCCC2)n1)C(=O)O
Q) Returns the identifier with the smallest measured Mouse microsome % 60 min among a and b . Returns: label corresponding to the selected item.
A) b
(b: 34%, a: 88%)

(1) Cn1ncc2cccc(-n3nc(COC(C)(C)C(=O)O)cc3-c3cccc(OC4CCC4)c3)c21
(2) CCOc1ccccc1Cn1nc(COC(C)(C)C(=O)O)cc1-c1cc(OC)cc(OC)c1
Q) Form field 'greater Mouse microsome % 60 min' accepts 1 or 2 ; which applies? Returns: label corresponding to the selected item.
A) 1
(1: 82%, 2: 43%)

====

- measurementDescription: Metabolic stability in rat liver microsomes (in vitro t1/2)
- Format: in vitro ADME
- conditionsUsed: rat liver microsomes, 60 min
measureName: Rat microsome % 60 min (%)

(P) CCOc1cc(OCC)cc(-c2cc(COC(C)(C)C(=O)O)nn2-c2ccccc2Cl)c1
(Q) CCOc1ccccc1Cn1nc(COC(C)(C)C(=O)O)cc1-c1cc(OC)cc(OC)c1
Q) Returns the identifier with the smallest measured Rat microsome % 60 min among P and Q . Returns: label corresponding to the selected item.
A) Q

(A) CCn1ncc2ccc(-c3cc(COC(C)(C)C(=O)O)nn3-c3ccccc3N3CCC3)cc21
(B) CC(C)(OCc1cc(-c2cccc(OC3CC3)c2)n(-c2ccccc2N2CCC2)n1)C(=O)O
Q) Returns the identifier with the smallest measured Rat microsome % 60 min among A and B . Returns: label corresponding to the selected item.
A) B

====

Attribute: IC50
- targetSystem: MCT1 (Homo sapiens (Human))
- measurementDescription: Assay 4: MCT1-mediated lactate transport in BT20 breast cancer cells
- Assay type: cell-based
- conditionsUsed: Table 27

Completed entries (count: 5):
Q) Reported IC50 for `COc1cccc(-c2cc(COC(C)(C)C(=O)O)nn2Cc2c(F)cccc2N(C)C)c1` : what is it?
A) > 33000 nM

Q) Can you handle `CC(C)COc1ccc(-c2cc(COC(C)(C)C(=O)O)nn2Cc2ccccc2Cl)s1` next?
A) > 11000 nM

Q) Can you handle `CC(C)COc1cccc(-c2cc(COC(C)(C)C(=O)O)nn2Cc2ccccc2N(C)C)c1` next?
A) > 11000 nM

Q) Can you handle `CC(C)(OCc1cc(-c2cccc(OC3CC3)c2)n(-c2ccccc2N2CCCC2=O)n1)C(=O)O` next?
A) > 100000 nM

Q) Can you handle `CC(C)COc1cccc(-c2cc(COC(C)(C)C(=O)O)nn2Cc2ccccn2)c1` next?
A) > 100000 nM

In the following, a different compound is considered.
Q) Reported IC50 for `CC(C)(OCc1cc(-c2cccc(OC3CC3)c2)n(-c2ccccc2-n2cccn2)n1)C(=O)O` : what is it?
A) > 100000 nM

====

- targetSystem: MCT1 (Homo sapiens (Human), UniProt P53985)
- Sequence (P53985 whole entry): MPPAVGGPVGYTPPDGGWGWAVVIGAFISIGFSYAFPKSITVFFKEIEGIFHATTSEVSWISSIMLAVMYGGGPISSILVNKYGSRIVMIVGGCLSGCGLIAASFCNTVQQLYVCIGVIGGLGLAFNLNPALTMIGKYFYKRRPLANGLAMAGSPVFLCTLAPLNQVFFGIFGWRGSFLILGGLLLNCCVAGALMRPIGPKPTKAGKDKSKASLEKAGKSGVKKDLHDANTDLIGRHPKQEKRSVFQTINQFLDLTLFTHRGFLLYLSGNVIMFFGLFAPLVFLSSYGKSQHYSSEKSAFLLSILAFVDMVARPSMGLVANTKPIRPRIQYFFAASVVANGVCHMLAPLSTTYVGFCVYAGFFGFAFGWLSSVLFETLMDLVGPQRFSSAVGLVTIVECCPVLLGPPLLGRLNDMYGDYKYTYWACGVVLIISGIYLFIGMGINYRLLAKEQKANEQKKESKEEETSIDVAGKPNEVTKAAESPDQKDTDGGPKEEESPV
- Sequence (P35613 140-385 partner): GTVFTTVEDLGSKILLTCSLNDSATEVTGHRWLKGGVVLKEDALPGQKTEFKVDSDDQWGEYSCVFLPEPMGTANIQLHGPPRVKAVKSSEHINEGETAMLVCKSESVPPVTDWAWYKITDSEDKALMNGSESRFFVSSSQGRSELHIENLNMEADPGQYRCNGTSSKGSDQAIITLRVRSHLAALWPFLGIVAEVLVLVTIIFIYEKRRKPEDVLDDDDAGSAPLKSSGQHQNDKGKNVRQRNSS
- measurementDescription: Assay 4: MCT1-mediated lactate transport in BT20 breast cancer cells
- Type: cell-based
- conditionsUsed: Table 27
measureName: IC50 (nM)

Q) Reported IC50 for `COc1cccc(-c2cc(COC(C)(C)C(=O)O)nn2-c2ccccc2C)c1` : what is it?
A) 50000

(1) CC(C)(OCc1cc(-c2cccc(OC3CCC3)c2)n(Cc2ccccc2N2CCCC2)n1)C(=O)O
(2) CCn1ncc2ccc(-c3cc(COC(C)(C)C(=O)O)nn3-c3ccccc3N(C)C)cc21
Q) Returns the identifier with the smallest measured IC50 among 1 and 2 . Returns: label corresponding to the selected item.
A) 1
(1: 21000 nM, 2: 73000 nM)

====

- measurementDescription: Metabolic stability in rat liver microsomes (in vitro t1/2)
- Format: in vitro ADME
- conditionsUsed: rat liver microsomes, 60 min
measureName: Rat microsome % 60 min (%)

Q) Reported Rat microsome % 60 min for COc1cc(OC)cc(-c2cc(COC(C)(C)C(=O)O)nn2-c2ccccc2N2CCC2)c1 [Example 251] : what is it?
A) 83

Q) Can you handle Cn1ncc2cccc(-n3nc(COC(C)(C)C(=O)O)cc3-c3cccc(OC4CC4)c3)c21 [Example 191] next?
A) 94

Q) Can you handle Cn1ncc2cccc(-n3nc(COC(C)(C)C(=O)O)cc3-c3cccc(OCC(C)(C)C)c3)c21 [Example 167] next?
A) 72

Q) Can you handle CCn1ncc2ccc(-c3cc(COC(C)(C)C(=O)O)nn3-c3ccccc3Cl)cc21 [Example 157] next?
A) 97

Q) Can you handle CCOc1cccc(-n2nc(COC(C)(C)C(=O)O)cc2-c2cc(OC)cc(OC)c2)c1 [Example 243] next?
A) 88

Q) Can you handle CC(C)COc1cccc(-c2cc(COC(C)(C)C(=O)O)nn2-c2cccc3cnn(C)c23)c1 [Example 170] next?
A) 95

Q) Can you handle COc1cc(OC)cc(-c2cc(COC(C)(C)C(=O)O)nn2-c2ccccc2Cl)c1 [Example 179] next?
A) 85

Q) Can you handle Cc1ccccc1-n1nc(COC(C)(C)C(=O)O)cc1-c1cccc(OC2CC2)c1 [Example 188] next?
A) 87

====

- targetSystem: UniProtKB P53985
- measurementDescription: Assay 4: MCT1-mediated lactate transport in BT20 breast cancer cells
- Type: cell-based
- conditionsUsed: Table 27
Attribute: IC50

Q) Reported IC50 for `CC(C)(OCc1cc(-c2cccc(OC3CC3)c2)n(-c2ccccc2N2CC[C@@H](O)C2)n1)C(=O)O` : what is it?
A) > 100000 nM

---
Q) Reported IC50 for `CC(C)(OCc1cc(-c2cccc(OC3CC3)c2)n(-c2cccc3cn[nH]c23)n1)C(=O)O` : what is it?
A) > 100000 nM

Q) Can you handle `Cc1n[nH]c2cccc(-n3nc(COC(C)(C)C(=O)O)cc3-c3cccc(OC4CC4)c3)c12` next?
A) > 100000 nM

====

- measurementDescription: Pharmacokinetic assay in mouse (IV 3 mg/kg, PO 10 mg/kg)
- Type: in vivo
- conditionsUsed: Male CD1 mouse, oral bioavailability, PO 10 mg/kg
measureName: Mouse F (%)

Q) Reported Mouse F for `CCn1ncc2ccc(-c3cc(COC(C)(C)C(=O)O)nn3-c3ccccc3N3CCCC3)cc21` : what is it?
A) 100

Q) Can you handle `CCn1ncc2ccc(-c3cc(CO[C@](C)(CC)C(=O)O)nn3Cc3ccccc3Cl)cc21` next?
A) 100

Q) Can you handle `CC(C)(OCc1cc(-c2cccc(OC3CCC3)c2)n(-c2ccccc2N2CCC2)n1)C(=O)O` next?
A) 86

Q) Can you handle `CC(C)(OCc1cc(-c2cccc(OC3CC3)c2)n(-c2ccccc2N2CCC2)n1)C(=O)O` next?
A) 56

Q) Can you handle `COc1cccc(-c2cc(COC(C)(C)C(=O)O)nn2Cc2ccccc2Cl)c1` next?
A) 100

Q) Can you handle `CCOc1ccccc1Cn1nc(CO[C@](C)(CC)C(=O)O)cc1-c1cc(OC)cc(OC)c1` next?
A) 94

Q) Can you handle `CCn1ncc2ccc(-c3cc(CO[C@](C)(CC)C(=O)O)nn3-c3ccccc3N3CCC3)cc21` next?
A) 100

Q) Can you handle `CCn1ncc2ccc(-c3cc(COC(C)(C)C(=O)O)nn3Cc3ccccc3Cl)cc21` next?
A) 89

Q) Can you handle `CCn1ncc2ccc(-c3cc(CO[C@](C)(CC)C(=O)O)nn3-c3ccccc3N3CCCC3)cc21` next?
A) 77

Q) Can you handle `CCCn1ncc2ccc(-c3cc(CO[C@](C)(CC)C(=O)O)nn3-c3ccccc3N3CCC3)cc21` next?
A) 64

Q) Can you handle `CCn1ncc2ccc(-c3cc(CO[C@@](C)(CC)C(=O)O)nn3Cc3ccccc3Cl)cc21` next?
A) 76
